tested on: Enterococcus faecium; assay: Antibacterial activity against Vancomycin resistant Enterococcus faecium VRE 700802; format: functional
Kindly supply the reported MIC values for the records listed here.
Numbers only, in µg/mL.

The examples below pair each entry with its known result.
>>> df
                                   compound  metric_name      u  measurement
0  CCc1cc(Nc2cc(=O)n(CCCCN3CCN(c4c(F)cc5c(=O)c(C(=O)O)cn(CC)c5c4F)CC3)c(=O)[nH]2)ccc1C          MIC  µg/mL        0.625
1  CCc1cc(Nc2cc(=O)n(CCCCO)c(=O)[nH]2)ccc1C          MIC  µg/mL            5
2  O=C(O)c1cn(C2CC2)c2cc(N3CCNCC3)c(F)cc2c1=O          MIC  µg/mL           80
3  CCn1cc(C(=O)O)c(=O)c2cc(F)c(N3CCNCC3)cc21          MIC  µg/mL           80
4  CC(=O)NC[C@H]1CN(c2ccc(N3CCOCC3)c(F)c2)C(=O)O1          MIC  µg/mL         1.25
5  CCc1cc(Nc2cc(=O)n(CCCCN3CCN(c4c(F)cc5c(=O)c(C(=O)O)cn(C6CC6)c5c4Cl)CC3)c(=O)[nH]2)ccc1C          MIC  µg/mL        0.625
6  CCc1cc(Nc2cc(=O)n(CCCCN3CCN(c4c(F)cc5c(=O)c(C(=O)O)cn(C6CC6)c5c4OC)CC3)c(=O)[nH]2)ccc1C          MIC  µg/mL        0.625
7  CCc1cc(Nc2cc(=O)n(CCCCN3CCN(c4cc5c(cc4F)c(=O)c(C(=O)O)cn5C4CC4)C[C@H]3C)c(=O)[nH]2)ccc1C          MIC  µg/mL        0.625
8  CCc1cc(Nc2cc(=O)n(CCCCN3CCN(c4cc5c(cc4F)c(=O)c(C(=O)O)cn5CC)CC3)c(=O)[nH]2)ccc1C          MIC  µg/mL        0.625
9  CCc1cc(Nc2cc(=O)n(CCCCN3CCN(c4c(F)cc5c(=O)c(C(=O)O)cn(C6CC6)c5c4F)CC3C)c(=O)[nH]2)ccc1C (stereo unspecified)          MIC  µg/mL        0.625

Consider the following items and state reported MIC for each.
1. CCc1cc(Nc2cc(=O)n(CCCCN3CCN(c4c(F)cc5c(=O)c(C(=O)O)cn(C6CC6)c5c4F)CC3CO)c(=O)[nH]2)ccc1C (stereo unspecified)
2. CCc1cc(Nc2cc(=O)n(CCCCN3CCN(c4cc5c(cc4F)c(=O)c(C(=O)O)cn5-c4ccc(F)cc4F)CC3)c(=O)[nH]2)ccc1C
3. CCc1cc(Nc2cc(=O)n(CCCCN3CCN(c4nc5c(cc4F)c(=O)c(C(=O)O)cn5CC)CC3)c(=O)[nH]2)ccc1C
4. CCc1cc(Nc2cc(=O)n(CCCCN3CCN(c4cc5c(cc4F)c(=O)c(C(=O)O)cn5-c4ccc(F)cc4)CC3)c(=O)[nH]2)ccc1C
5. CCc1cc(Nc2cc(=O)n(CCCCN3CCN(c4cc5c(cc4F)c(=O)c(C(=O)O)cn5C(C)(C)C)CC3)c(=O)[nH]2)ccc1C.Cl

Result ::
1. 2.5
2. 1.25
3. 0.625
4. 1.25
5. 1.25

Consider the following items and state reported MIC for each.
1. CCc1cc(Nc2cc(=O)n(CCCCN3CCN(c4c(F)cc5c(=O)c(C(=O)O)cn(C6CC6)c5c4F)C[C@@H]3C)c(=O)[nH]2)ccc1C
2. Cc1ccc(Nc2cc(=O)n(CCCCN3CCN(c4cc5c(cc4F)c(=O)c(C(=O)O)cn5C4CC4)CC3)c(=O)[nH]2)cc1C
3. CCc1cc(Nc2cc(=O)n(CCCCCN3CC4CCCN(c5cc6c(cc5F)c(=O)c(C(=O)O)cn6CC)C4C3)c(=O)[nH]2)ccc1C (stereo unspecified)
4. CCc1cc(Nc2cc(=O)n(CCCCN3CCN(c4cc5c(cc4F)c(=O)c(C(=O)O)cn5C4CC4)CC3C)c(=O)[nH]2)ccc1C (stereo unspecified)
5. O=C(O)c1cn(C2CC2)c2cc(N3CCN(CCCCn4c(=O)cc(Nc5ccccc5)[nH]c4=O)CC3)c(F)cc2c1=O
6. CCc1cc(Nc2cc(=O)n(CCCCN3CCN(c4cc5c(cc4F)c(=O)c(C(=O)O)cn5C4CC4)C[C@@H]3C)c(=O)[nH]2)ccc1C
7. C[C@@H]1CN(c2c(F)c(N)c3c(=O)c(C(=O)O)cn(C4CC4)c3c2F)C[C@H](C)N1

Result ::
1. 0.625
2. 1.25
3. 5
4. 0.626
5. 40
6. 0.625
7. 80

Consider the following items and state reported MIC for each.
1. CCc1cc(Nc2cc(=O)n(CCCCCN3CC4OCCN(c5cc6c(cc5F)c(=O)c(C(=O)O)cn6C5CC5)C4C3)c(=O)[nH]2)ccc1C (stereo unspecified)
2. CCc1cc(Nc2cc(=O)n(CCCCN3CCN(c4cc5c(cc4F)c(=O)c(C(=O)O)cn5C4CC4)CC3)c(=O)[nH]2)ccc1C
3. CCc1cc(Nc2cc(=O)n(CCCCN3CCN(c4c(F)cc5c(=O)c(C(=O)O)cn(C6CC6)c5c4F)C[C@H]3C)c(=O)[nH]2)ccc1C
4. CCc1cc(Nc2cc(=O)n(CCCCCN3CCN(c4cc5c(cc4F)c(=O)c(C(=O)O)cn5C4CC4)CC3)c(=O)[nH]2)ccc1C

Result ::
1: 10; 2: 0.625; 3: 1.25; 4: 1.25

* * *

assay: Tmax in mice at 100 mg/kg, iv; type: ADME, organism-based; set-up: dose 100 mg/kg, route intravenous; conditions: Swiss Webster, mouse, in vivo
metric.name: Tmax (min)
Give bare numbers, in min.

Query :: I have this molecule here, CCc1cc(Nc2cc(=O)n(CCCCN3CCN(c4cc5c(cc4F)c(=O)c(C(=O)O)cn5C4CC4)CC3)c(=O)[nH]2)ccc1C , and I need its recorded Tmax.
Result :: 5

* * *

biological target: DNA polymerase III PolC-type (Bacillus subtilis (strain 168)); assay: Binding affinity to Bacillus subtilis DNA polymerase3C
Sequence (P13267 whole entry): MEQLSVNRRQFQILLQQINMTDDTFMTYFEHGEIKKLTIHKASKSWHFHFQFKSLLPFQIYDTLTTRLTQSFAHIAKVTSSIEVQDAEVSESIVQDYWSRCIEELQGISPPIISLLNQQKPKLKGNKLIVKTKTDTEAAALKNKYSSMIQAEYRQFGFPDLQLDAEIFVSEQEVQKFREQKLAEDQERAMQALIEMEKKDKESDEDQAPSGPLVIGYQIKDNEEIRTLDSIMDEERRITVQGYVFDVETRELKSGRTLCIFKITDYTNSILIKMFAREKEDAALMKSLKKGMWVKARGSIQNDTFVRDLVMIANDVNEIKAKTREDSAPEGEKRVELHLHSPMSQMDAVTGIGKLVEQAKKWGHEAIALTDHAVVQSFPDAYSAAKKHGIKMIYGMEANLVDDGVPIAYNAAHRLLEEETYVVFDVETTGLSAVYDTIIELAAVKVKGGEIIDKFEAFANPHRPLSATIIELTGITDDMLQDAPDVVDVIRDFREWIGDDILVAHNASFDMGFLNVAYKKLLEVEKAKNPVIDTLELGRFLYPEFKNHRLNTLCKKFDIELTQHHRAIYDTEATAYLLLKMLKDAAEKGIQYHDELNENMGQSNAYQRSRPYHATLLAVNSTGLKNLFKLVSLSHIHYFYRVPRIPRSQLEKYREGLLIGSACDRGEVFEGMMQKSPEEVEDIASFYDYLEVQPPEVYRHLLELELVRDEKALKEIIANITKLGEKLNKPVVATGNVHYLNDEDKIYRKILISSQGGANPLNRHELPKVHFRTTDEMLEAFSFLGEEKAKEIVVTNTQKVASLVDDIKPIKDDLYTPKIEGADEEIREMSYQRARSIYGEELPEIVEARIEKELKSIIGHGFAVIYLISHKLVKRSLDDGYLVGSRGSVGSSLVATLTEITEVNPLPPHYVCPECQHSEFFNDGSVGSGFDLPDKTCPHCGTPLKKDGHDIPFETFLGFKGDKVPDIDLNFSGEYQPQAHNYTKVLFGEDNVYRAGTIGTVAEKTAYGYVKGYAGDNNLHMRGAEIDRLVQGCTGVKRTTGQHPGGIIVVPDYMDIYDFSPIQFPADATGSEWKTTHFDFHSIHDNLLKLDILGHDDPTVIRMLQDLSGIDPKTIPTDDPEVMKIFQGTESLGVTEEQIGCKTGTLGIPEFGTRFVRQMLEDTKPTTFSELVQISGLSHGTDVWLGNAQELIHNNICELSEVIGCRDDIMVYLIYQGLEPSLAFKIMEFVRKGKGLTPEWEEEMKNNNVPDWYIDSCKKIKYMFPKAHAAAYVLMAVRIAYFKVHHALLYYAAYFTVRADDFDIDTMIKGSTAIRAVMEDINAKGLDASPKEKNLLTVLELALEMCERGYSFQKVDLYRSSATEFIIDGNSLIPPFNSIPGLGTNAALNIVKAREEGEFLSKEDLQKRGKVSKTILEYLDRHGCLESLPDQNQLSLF
metric.name: Ki

>>> print(df.to_string())
                                   compound  metric_name  measurement
0  O=C(O)c1cn(C2CC2)c2cc(N3CCNCC3)c(F)cc2c1=O [CIPROFLOXACIN]           Ki   Not Active
1  C[C@@H]1CN(c2c(F)c(N)c3c(=O)c(C(=O)O)cn(C4CC4)c3c2F)C[C@H](C)N1 [SPARFLOXACIN]           Ki   Not Active
2  CC(=O)NC[C@H]1CN(c2ccc(N3CCOCC3)c(F)c2)C(=O)O1 [LINEZOLID]           Ki   Not Active
3  CCn1cc(C(=O)O)c(=O)c2cc(F)c(N3CCNCC3)cc21 [NORFLOXACIN]           Ki   Not Active

* * *

experiment: Plasma concentration after 6 hrs in mice administered with 100 mg/kg, iv; type: ADME, organism-based; design: dose 100 mg/kg, route intravenous; details: Swiss Webster, mouse
metric.name: concentration at 6 h (ng/mL)
Answers are plain numbers, in ng/mL.

Query :: I have this compound here, CCc1cc(Nc2cc(=O)n(CCCCN3CCN(c4cc5c(cc4F)c(=O)c(C(=O)O)cn5C4CC4)CC3)c(=O)[nH]2)ccc1C , and I need its recorded concentration at 6 h.
Result :: 620

* * *

Kindly supply the reported MIC values for the records listed here.
tested on: Bacillus subtilis; experiment: Antibacterial activity against Bacillus subtilis BD54; type: functional
Give bare numbers, in µg/mL.

The examples below pair each entry with its known result.
>>> df
                                   compound      u  measurement
0  CC(=O)NC[C@H]1CN(c2ccc(N3CCOCC3)c(F)c2)C(=O)O1  µg/mL        0.625
1  CCc1cc(Nc2cc(=O)n(CCCCCN3CC4OCCN(c5cc6c(cc5F)c(=O)c(C(=O)O)cn6C5CC5)C4C3)c(=O)[nH]2)ccc1C (stereo not given)  µg/mL        0.625
2  CCc1cc(Nc2cc(=O)n(CCCCN3CCN(c4cc5c(cc4F)c(=O)c(C(=O)O)cn5-c4ccc(F)cc4F)CC3)c(=O)[nH]2)ccc1C  µg/mL        0.313
3  CCc1cc(Nc2cc(=O)n(CCCCN3CCN(c4cc5c(cc4F)c(=O)c(C(=O)O)cn5C(C)(C)C)CC3)c(=O)[nH]2)ccc1C.Cl  µg/mL        0.313

Consider the following items and state reported MIC for each.
1. CCc1cc(Nc2cc(=O)n(CCCCN3CCN(c4c(F)cc5c(=O)c(C(=O)O)cn(C6CC6)c5c4F)CC3CO)c(=O)[nH]2)ccc1C (stereo not given)
2. CCc1cc(Nc2cc(=O)n(CCCCN3CCN(c4c(F)cc5c(=O)c(C(=O)O)cn(C6CC6)c5c4Cl)CC3)c(=O)[nH]2)ccc1C
3. Cc1ccc(Nc2cc(=O)n(CCCCN3CCN(c4cc5c(cc4F)c(=O)c(C(=O)O)cn5C4CC4)CC3)c(=O)[nH]2)cc1C
4. CCc1cc(Nc2cc(=O)n(CCCCCN3CC4CCCN(c5cc6c(cc5F)c(=O)c(C(=O)O)cn6C5CC5)C4C3)c(=O)[nH]2)ccc1C (stereo not given)

Result ::
0.625
0.078
0.313
1.25

Consider the following items and state reported MIC for each.
1. CCn1cc(C(=O)O)c(=O)c2cc(F)c(N3CCNCC3)cc21
2. CCc1cc(Nc2cc(=O)n(CCCCN3CCN(c4cc5c(cc4F)c(=O)c(C(=O)O)cn5CC)CC3)c(=O)[nH]2)ccc1C
3. CCc1cc(Nc2cc(=O)n(CCCCO)c(=O)[nH]2)ccc1C

Result ::
1: 0.313; 2: 0.313; 3: 1.25

Consider the following items and state reported MIC for each.
1. O=C(O)c1cn(C2CC2)c2cc(N3CCN(CCCCn4c(=O)cc(Nc5ccccc5)[nH]c4=O)CC3)c(F)cc2c1=O
2. CCc1cc(Nc2cc(=O)n(CCCCN3CCN(c4c(F)cc5c(=O)c(C(=O)O)cn(CC)c5c4F)CC3)c(=O)[nH]2)ccc1C
3. CCc1cc(Nc2cc(=O)n(CCCCN3CCN(c4cc5c(cc4F)c(=O)c(C(=O)O)cn5C4CC4)C[C@H]3C)c(=O)[nH]2)ccc1C

Result ::
1: 2.5; 2: 0.313; 3: 0.313
